molecular target: T1, recombinant KIT D4/D5 (human, UniProt P10721 26-519); assay: solid phase ELISA, plate-adsorbed recombinant D4/D5 region of human KIT (FIG. 5)
T1 construct: also called recombinant c-Kit Ig-like domains D4/D5; recombinant polypeptide of the D4/D5 region of human KIT
T1 sequence (P10721 other isoform, or with tags, fused parts or gaps limits assumed): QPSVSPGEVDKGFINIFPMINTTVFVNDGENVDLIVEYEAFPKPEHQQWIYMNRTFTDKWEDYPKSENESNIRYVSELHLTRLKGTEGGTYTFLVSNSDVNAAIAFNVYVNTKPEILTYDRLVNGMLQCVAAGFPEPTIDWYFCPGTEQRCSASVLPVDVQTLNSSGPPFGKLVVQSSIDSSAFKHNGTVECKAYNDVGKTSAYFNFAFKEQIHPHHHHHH
Could you please report measured EC50 for the items listed next?

Q. Requested field: EC50. Item: Hum10 (antibody, V domains shown) VH: QVQLVQSGAEVKKPGASVKVSCKASGYTFTDYYINWVRQAPGKGLEWIARIYPGSGNTYYNEKFKGRVTITADKSTSTAYMELSSLRSEDTAVYFCARGVYYFDYWGQGTTVTVSS VL: DIVMTQSPSSLSASVGDRVTITCKASQNVRTNVAWYQQKPGKAPKALIYSASYRYSGVPDRFTGSGSGTDFTLTISSLQPEDFADYFCQQYNSYPRTFGGGTKVEIK
A. ~0.023 nM

Q. Given the entry Hum4 (antibody, V domains shown) VH: QVQLVQSGAEVKKPGASVKVSCKASGYTFTDYYINWVRQAPGKGLEWIARIYPGSGNTYYNEKFKGRATITADKSTSTAYMELSSLRSEDTAVYFCARGVYYFDYWGQGTTVTVSS VL: DIVMTQSPSFLSASVGDRVTITCKASQNVRTNVAWYQQKPGKAPKALIYSASYRYSGVPDRFTGSGSGTDFTLTISSLQSEDFADYFCQQYNSYPRTFGGGTKVEIK , report its measured EC50.
A. ~0.0075 nM
